The measured values listed here are drawn from the Human Domainome abundance scans (Beltran et al. 2025).

B1: POU domain, class 2, transcription factor 1, residues 285 to 354; numbered along this chain, P14859 (parent)
chain: LEELEQFAKTFKQRRIKLGFTQGDVGLAMGKLYGNDFSQTTISRFEALNLSFKNMCKLKPLLEKWLNDAE

variants of: B1; test: abundance fitness (aPCA) (normalised: wild type 0, dead -1); higher = more abundant; growth selection in yeast, the domain comes from the species named; details: Homo sapiens
Class 1 (yes): abundance fitness at least -0.1. Class 0 (no): abundance fitness below -0.1.

VAR	GROUP_LABEL
F20Y	1 (yes)
L58Y	0 (no)
W65L	0 (no)
D68S	1 (yes)

In: I'd appreciate it if you could say whether "L66V" has abundance fitness at least equal to -0.1.
Out: 1 (yes)

In: I'd appreciate it if you could say whether "G23R" has abundance fitness at least equal to -0.1.
Out: 1 (yes)

In: I'd appreciate it if you could say whether "F20A" has abundance fitness at least equal to -0.1.
Out: 1 (yes)

In: I'd appreciate it if you could say whether "F45R" has abundance fitness at least equal to -0.1.
Out: 0 (no)

In: I'd appreciate it if you could say whether "F11N" has abundance fitness at least equal to -0.1.
Out: 0 (no)

In: I'd appreciate it if you could say whether "D24V" has abundance fitness at least equal to -0.1.
Out: 0 (no)

In: I'd appreciate it if you could say whether "K59G" has abundance fitness at least equal to -0.1.
Out: 0 (no)

In: I'd appreciate it if you could say whether "L18W" has abundance fitness at least equal to -0.1.
Out: 0 (no)

In: I'd appreciate it if you could say whether "L32N" has abundance fitness at least equal to -0.1.
Out: 1 (yes)
